Quick reference: IC50 of the listed items.
# target_entity: TNFα trimer (Homo sapiens)
# assay_info: TNFα FP Competitive Binding Assay
# assay_setup: fluorescence polarization competition; 20 nM TNFα trimer, 1 nM OregonGreen488 probe; read-out: TNF IC50 (TNFα FP binding assay IC50)

[[record]]
compound = "CC(C)(O)c1ncc(-c2ccc3nc4n(c3n2)C(c2ccccc2)CC4)cn1 (stereo not shown)"
reported_endpoint = "IC50"
recorded_result = "< 1000 nM"

[[record]]
compound = "CC(C)(O)c1ncc(-c2ccc3nc4n(c3n2)C(c2ccccc2)C2CC4C2)cn1 (stereo not shown)"
reported_endpoint = "IC50"
recorded_result = "1000 to 10000 nM"

[[record]]
compound = "O=C1NC[C@H]2CN(c3ncc(-c4ccc5nc6n(c5c4)[C@@H](c4ccccc4)COC6)cn3)CCN12"
reported_endpoint = "IC50"
recorded_result = "< 1000 nM"


# lookup: IC50 of c1ccc([C@@H]2CCc3nc4ccc(-c5cnc(N6CCOCC6)nc5)cc4n32)cc1 10000 to 100000 nM

What measured IC50 goes with OC1CCC(Oc2cc(-c3ccc4nc5n(c4n3)C3(COC5)COc4ccccc43)ccn2)CC1 (stereo not shown) ? < 1000 nM

I am curious: what IC50 value has been reported for CS(=O)(=O)c1cccc(-c2ccc3nc4n(c3c2)C(c2ccccc2)CC4)c1 (stereo not shown) ? 10000 to 100000 nM

Using the record for CC1(c2ccccc2)CCc2nc3ccc(-c4cnc(N5CCC(O)CC5)nc4)nc3n21 (stereo not shown) , report its IC50. < 1000 nM

Return reported IC50; argument: CC(C)(O)c1ncc(-c2ccc3nc4n(c3c2)C(c2ccccc2)CC4)cn1 (stereo not shown) < 1000 nM

Request the reported IC50 associated with O=C(O)C1CCN(c2ncc(-c3ccc4nc5n(c4c3)C(c3ccccc3)CCC5)cn2)CC1 (stereo not shown) 1000 to 10000 nM

If you can, please state the reported IC50 value of c1ccc2c(c1)OCC21COCc2nc3ccc(-c4cnc(N5CCNCC5)nc4)nc3n21 (stereo not shown) . 1000 to 10000 nM

If you can, please state the reported IC50 value of c1ccc(C2CCc3nc4ccc(-c5cnn(Cc6cccnc6)c5)cc4n32)cc1 (stereo not shown) . 1000 to 10000 nM

Given the entry OC1CCN(c2ncc(-c3ccc4nc5n(c4c3)[C@@H](c3ccccc3)CC5)cn2)CC1 , report its measured IC50. < 1000 nM

* * *

The following compounds are shown together with reported pIC50 values.
# target_entity: TNFα trimer (Homo sapiens)
# assay_info: TNFα FP Competitive Binding Assay
# assay_setup: TNFα FP competitive binding assay; class symbols A/B/C; read-out: TNF IC50
pIC50: −log10 of the molar value.

Answered cases to consult:
[[record]]
compound = "CN1CCOc2cc(-c3ccc4nc5n(c4c3)C(c3ccccc3)COC5)cnc21 (stereo not drawn)"
recorded_result = "5.00 to 6.00"

[[record]]
compound = "OC1CCCN(c2ncc(-c3ccc4nc5n(c4n3)C3(CCc4ccccc43)COC5)cn2)CC1 (stereo not drawn)"
recorded_result = "> 6.00"

[[record]]
compound = "Cc1cc(-c2ccc3nc4n(c3c2)C(c2ccccc2)COC4)cnc1OC(C)C (stereo not drawn)"
recorded_result = "5.00 to 6.00"

[[record]]
compound = "CC(O)C(=O)N1CCN(c2ncc(-c3ccc4nc5n(c4n3)C3(CCc4ccccc43)COC5)cn2)CC1 (stereo not drawn)"
recorded_result = "> 6.00"

[[record]]
compound = "C1=C(c2ccc3nc4n(c3n2)C2(COC4)COc3ccccc32)CNC1 (stereo not drawn)"
recorded_result = "5.00 to 6.00"

[[record]]
compound = "COc1cccc([C@H]2CCc3nc4ccc(-c5cnc(N6CCN(C(C)=O)[C@H](C)C6)nc5)nc4n32)c1"
recorded_result = "> 6.00"


What reported pIC50 corresponds to OC1CCC(Oc2cc(-c3ccc4nc5n(c4n3)[C@@H](c3ccccc3)CC5)ccn2)CC1 (stereo partly drawn) on TNFα trimer (Homo sapiens)? > 6.00

Param readout= pIC50; system= TNFα trimer (Homo sapiens); entry= CN(C)c1ncc(-c2ccc3nc4n(c3c2)C(c2ccccc2)COC4)cn1 (stereo not drawn) ; returns value. 5.00 to 6.00

TNFα trimer (Homo sapiens) / pIC50 / COc1ccccc1C1CCCc2nc3ccc(-c4cnc(N5CCN6C(=O)NCC6C5)nc4)cn3c21 (stereo not drawn) : value? > 6.00

* * *

Consider the following molecules and their measured pIC50 readings.
# target_entity: UniProtKB P01375
# assay_info: TNFα FP Competitive Binding Assay
# assay_setup: TNFα FP competitive binding assay; class symbols A/B/C; read-out: TNF IC50
pIC50: −log10 of the molar value.

Please review the entries below; each comes with its answer.
[[record]]
molecule = "O=C1NCC2CN(c3ncc(-c4ccc5nc6n(c5n4)C(C4CCCCC4)CC6)cn3)CCN12 (stereo not drawn)"
target_entity = "UniProtKB P01375"
reported_endpoint = "pIC50"
recorded_result = "> 6.00"

[[record]]
molecule = "c1ccc([C@H]2CCc3nc4ccc(-c5ccnc(OCC6COC6)c5)nc4n32)cc1"
target_entity = "UniProtKB P01375"
reported_endpoint = "pIC50"
recorded_result = "5.00 to 6.00"

[[record]]
molecule = "COc1ccccc1C1CCCc2nc3ccc(-c4cnc(N5CCC(O)C(F)(F)C5)nc4)cn3c21 (stereo not drawn)"
target_entity = "UniProtKB P01375"
reported_endpoint = "pIC50"
recorded_result = "> 6.00"


For COc1ccccc1[C@H]1CCCc2nc3ccc(-c4cnc(C(C)(C)O)nc4)cn3c21 , what is its reported pIC50? > 6.00

* * *

Catalogue of molecules with associated IC50
# target_entity: TNFα trimer (Homo sapiens, UniProt P01375)
# Sequence (P01375 77-233 limits assumed): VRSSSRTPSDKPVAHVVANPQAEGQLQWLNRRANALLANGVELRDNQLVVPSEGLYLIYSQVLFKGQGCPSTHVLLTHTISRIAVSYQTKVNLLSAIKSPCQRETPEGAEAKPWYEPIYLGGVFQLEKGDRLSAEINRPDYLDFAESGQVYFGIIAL
# assay_info: TNFα FP Competitive Binding Assay
# assay_setup: fluorescence polarization competition; 20 nM TNFα trimer, 1 nM OregonGreen488 probe; read-out: TNF IC50 (TNFα FP binding assay IC50)

Worked set:
[[record]]
molecule = "c1ccc(C2CCOc3nc4ccc(-c5cnc(N6CCOCC6)nc5)cn4c32)cc1 (stereo not drawn)"
reported_endpoint = "IC50"
recorded_result = "1000 to 10000 nM"

[[record]]
molecule = "c1ccc2c(c1)OCCC21COCc2nc3ccc(-c4cnc(N5CCNCC5)nc4)nc3n21 (stereo not drawn)"
reported_endpoint = "IC50"
recorded_result = "1000 to 10000 nM"

[[record]]
molecule = "COc1ccccc1C1CCCc2nc3ccc(-c4cnc(N5CCOCC5)nc4)cn3c21 (stereo not drawn)"
reported_endpoint = "IC50"
recorded_result = "< 1000 nM"

[[record]]
molecule = "O=C(NC1CC1)c1ccc(-c2ccc3nc4n(c3c2)C(c2ccccc2)CC4)cc1 (stereo not drawn)"
reported_endpoint = "IC50"
recorded_result = "1000 to 10000 nM"

[[record]]
molecule = "OC1CCN(c2ncc(-c3ccc4nc5n(c4c3)[C@@H](c3ccccc3)CC5)cn2)CC1(F)F (stereo partly drawn)"
reported_endpoint = "IC50"
recorded_result = "< 1000 nM"

[[record]]
molecule = "c1ccc(C2CCc3nc4ccc(N5CCN(c6ncccn6)CC5)nc4n32)cc1 (stereo not drawn)"
reported_endpoint = "IC50"
recorded_result = "1000 to 10000 nM"

[[record]]
molecule = "CC(O)C1CCN(c2ncc(-c3ccc4nc5n(c4c3)[C@@H](c3ccccc3)COC5)cn2)CC1 (stereo partly drawn)"
reported_endpoint = "IC50"
recorded_result = "1000 to 10000 nM"

[[record]]
molecule = "OC1(c2cccc(F)c2)CCCCc2nc3ccc(-c4cnc(N5CCOCC5)nc4)cn3c21 (stereo not drawn)"
reported_endpoint = "IC50"
recorded_result = "< 1000 nM"


Could you now consider this next molecule?
Return reported IC50; argument: C[C@]1(c2ccccc2)CCc2nc3ccc(-c4cnc(N5CCC(O)CC5)nc4)nc3n21 < 1000 nM

* * *

# target_entity: TNFα trimer (Homo sapiens, UniProt P01375)
# assay_info: TNFα FP Competitive Binding Assay
# assay_setup: TNFα FP competitive binding assay; class symbols A/B/C; read-out: TNF IC50
# Experimental: TNFα FP Competitive Binding Assay • 1. […] • 1. […] Prior to reading the assay, the plates are placed in a dark cabinet to equilibrate at rt for one hour. • 9. Background-subtracted fluorescence polarization (mP) is measured using a PerkinElmer Envision plate reader. • 10. […]
pIC50: −log10 of the molar value.
reported_endpoint: pIC50

Value lookup for pIC50; key = c1ccc([C@H]2CCc3nc4ccc(-c5ccnc(OC6CCOC6)c5)nc4n32)cc1 (stereo partly drawn) [AS.1] 5.00 to 6.00

Please give the measured pIC50 for this compound: OC1CCN(c2ncc(-c3ccc4nc5n(c4n3)C3(CCOc4ccccc43)COC5)cn2)CC1 (stereo not drawn) [BB.2] > 6.00

Look up pIC50 for this compound: COC(C)(C)CC(=O)N1CC=C(c2ccc3nc4n(c3n2)C2(COC4)COc3ccccc32)CC1 (stereo not drawn) [BI.1] 5.00 to 6.00

Data request, read-out pIC50, for COCCOc1cc(-c2ccc3nc4n(c3n2)[C@@H](c2ccccc2)CC4)ccn1 [BC.1] 5.00 to 6.00

Sample c1ccc2c(c1)OCCC21OCCc2nc3ccc(-c4cnc(N5CCOCC5)nc4)nn3c21 (stereo not drawn) [AY.2] — what was its pIC50? > 6.00

Which pIC50 value is on record for CC1(O)CN(c2ncc(-c3ccc4nc5n(c4n3)C3(CCOc4ccccc43)COC5)cn2)C1 (stereo not drawn) [BB.7] ? 5.00 to 6.00

pIC50 for COc1ncc(-c2ccc3nc4n(c3c2)C(c2ccccc2)COC4)cn1 (stereo not drawn) [T.22] ? 5.00 to 6.00

Please give the measured pIC50 for this compound: CC(C)(O)c1ncc(-c2ccc3nc4n(c3c2)C(c2ccccc2)COC4)cn1 (stereo not drawn) [T.35] > 6.00

Give the measured pIC50 of c1ccc(C2C3CC(C3)c3nc4ccc(-c5ccnc(OC6CCOCC6)c5)nc4n32)cc1 (stereo not drawn) [BD.1] . 5.00 to 6.00

Where do the numbers come from? From patent US20180179198A1.
